- Test system: TK-10 renal
- assay-info: NCI tumour cell line growth inhibition, 48 h

[
  {
    "compound": "O=C1N[C@H]2c3c(Cl)sc(Cl)c3/C(=N/O)[C@H]2O1",
    "TGI": "> 100 µM"
  },
  {
    "compound": "c1csc(-c2ccc(-c3ccc(-c4ccc(-c5cccs5)s4)s3)s2)c1",
    "TGI": "> 100 µM"
  },
  {
    "compound": "CCC(C)CN1C(=O)NC(C)(Cc2ccccc2)C1=O (stereo unspecified)",
    "TGI": "> 100 µM"
  },
  {
    "compound": "COC(=O)[C@@H](NC(=O)NC(=O)NC(=O)CI)C(C)C",
    "TGI": "20.5 µM"
  },
  {
    "compound": "CN(C)CC(/C(Cc1ccccc1)=N\\NC(=O)C[n+]1ccccc1)c1ccccc1 (stereo unspecified)",
    "TGI": "> 100 µM"
  },
  {
    "compound": "O=C1NC(N/N=C\\C(O)C(O)C(O)CO)=N/C1=C/c1ccccc1 (stereo unspecified)",
    "TGI": "> 100 µM"
  }
]

====

- System: SK-MEL-28 melanoma
- assay-info: NCI tumour cell line growth inhibition, 48 h
Catalogue of TGI readings, one per entry.

[
  {
    "compound": "CCCCNC1CCC2(SCCS2)c2[nH]c3ccccc3c21 (configuration not stated)",
    "TGI": "> 100 µM"
  },
  {
    "compound": "COc1ccc2c(c1)C(=O)c1c-2n(CCCN)c(=O)c2ccccc12",
    "TGI": "1.89 µM"
  },
  {
    "compound": "NS(=O)(=O)c1ccc(NC(=O)c2ccc(NC3=C(Cl)C(=O)N(Cc4ccccc4)C3=O)cc2)cc1",
    "TGI": "> 100 µM"
  },
  {
    "compound": "C=CCC1(O)c2ccccc2C(=O)c2c(O)ccc(O)c21 (configuration not stated)",
    "TGI": "> 100 µM"
  },
  {
    "compound": "c1ccc(C2=NC3(CCCCC3)N(c3nc4ccccc4s3)N2)nc1",
    "TGI": "> 100 µM"
  },
  {
    "compound": "COC(=O)c1c2c(cc3c1CC1(Cc4ccccc4C1=O)C3)CCC2 (configuration not stated)",
    "TGI": "> 100 µM"
  },
  {
    "compound": "O=C(Cc1ccccc1)NCCc1ccc(O)c(O)c1",
    "TGI": "> 100 µM"
  },
  {
    "compound": "CN(C)CC(/C(Cc1ccccc1)=N\\NC(=O)C[n+]1ccccc1)c1ccccc1 (configuration not stated)",
    "TGI": "> 100 µM"
  },
  {
    "compound": "CC[n+]1cnc(N)c2c(-c3ccc(Cl)cc3)cn(-c3ccc(C)cc3)c21",
    "TGI": "21.2 µM"
  },
  {
    "compound": "O=C(Nc1cccc2ccccc12)Oc1ccccc1C1CCCCC1",
    "TGI": "38.1 µM"
  },
  {
    "compound": "COc1ccc(/C(=N/NC(N)=O)C2(O)C(=O)Nc3ccc([N+](=O)[O-])cc32)cc1 (configuration not stated)",
    "TGI": "36.9 µM"
  },
  {
    "compound": "CCOC(=O)c1cccc(NC(=O)CCl)c1",
    "TGI": "49.7 µM"
  },
  {
    "compound": "COc1cc2c(cc1OCCCN1CCN(CCCOc3cc4c(cc3OC)C(=O)N3CCC[C@H]3C=N4)CC1)C=CC(C)(C)O2",
    "TGI": "2.83 µM"
  },
  {
    "compound": "Cc1ccccc1NC(=S)Nc1ccccn1",
    "TGI": "> 100 µM"
  },
  {
    "compound": "Cc1ccc(NCCCN2CCN(CCCNc3ccc(C)c4sc5ccccc5c(=O)c34)CC2)c2c(=O)c3ccccc3sc12",
    "TGI": "> 100 µM"
  },
  {
    "compound": "C=C(Cn1c(=O)c2ccccc2c2ccccc21)c1ccc(C(=O)Nc2ccccc2N)cc1",
    "TGI": "> 100 µM"
  },
  {
    "compound": "S=c1sc2c(Cl)ncnc2n1-c1ccccc1",
    "TGI": "23.6 µM"
  },
  {
    "compound": "COc1ccc(C#Cc2ccccc2C#CCCCCO)cc1",
    "TGI": "24.8 µM"
  },
  {
    "compound": "O=c1[nH]c(=O)n(C2CC(O)C(CO)O2)cc1I (configuration not stated)",
    "TGI": "> 100 µM"
  },
  {
    "compound": "CO/C(=N\\N=C\\c1cc(OC)ccc1OC)c1ccncc1",
    "TGI": "> 10 µM"
  },
  {
    "compound": "O=C(CC1=Nc2nnc(-c3nnc4n3C(=O)C(CC(=O)c3cccnc3)=N4)n2C1=O)c1cccnc1",
    "TGI": "> 100 µM"
  },
  {
    "compound": "CCC[CH2][Sn]([CH2]CCC)([O]C(=O)c1c(F)cccc1F)[O]C(=O)c1c(F)cccc1F",
    "TGI": "1.87 µM"
  },
  {
    "compound": "CCC(C)CN1C(=O)NC(C)(Cc2ccccc2)C1=O (configuration not stated)",
    "TGI": "> 100 µM"
  },
  {
    "compound": "COC(=O)C(=O)C(C(=O)Nc1cccc(C)c1C)C1Sc2ccccc2NC1=O (configuration not stated)",
    "TGI": "> 25 µM"
  },
  {
    "compound": "O=C(Cn1c(=O)oc2ccc(C(=O)c3ccc(F)cc3)cc21)c1ccc([N+](=O)[O-])cc1",
    "TGI": "> 100 µM"
  },
  {
    "compound": "CC1=CCC[C@@]2(C)C(CC[C@@H]2C(C)/C=C/C(C)C)c2ccc(cc2C(=O)O)C[C@@H](O)CC1 (some centres not stated)",
    "TGI": "28.4 µM"
  },
  {
    "compound": "CC12CC3C(CC1SCC(=O)O2)C3(C)C (configuration not stated)",
    "TGI": "> 100 µM"
  },
  {
    "compound": "O=c1cc(CNC2CCCC2)[nH]c(=O)[nH]1",
    "TGI": "> 100 µM"
  },
  {
    "compound": "CCOc1cc2c(cc1O)/C(=N\\N)C[C@@H]1[C@@H]2CC[C@]2(C)[C@@H](O)CC[C@@H]12",
    "TGI": "34.2 µM"
  },
  {
    "compound": "CCC(C)[C@H](NC(=O)[C@H](Cc1ccccc1)NC(=O)N(CC)c1ccccc1)C(=O)N[C@@H](CC(C)C)C(=O)OC (some centres not stated)",
    "TGI": "> 100 µM"
  },
  {
    "compound": "Cc1c2cnccc2c(C)c2c1c1cc(C3OCCCO3)ccc1n2C",
    "TGI": "1.68 µM"
  },
  {
    "compound": "O=C(CSCC(=O)N/N=C/c1cc(I)cc(I)c1O)N/N=C/c1cc(I)cc(I)c1O",
    "TGI": "> 100 µM"
  }
]

====

Catalogue of TGI readings, one per entry.
- Tested on: EKVX NSCLC
- assay-info: NCI tumour cell line growth inhibition, 48 h

[
  {
    "molecule": "CCOc1ccc2nc(NC(=O)C(=O)C(C(=O)c3ccccc3-c3ccccc3)C3OC(=O)c4ccccc43)sc2c1 (stereo not given)",
    "target": "EKVX NSCLC",
    "relation-symbol": "=",
    "TGI [µM]": 47.5
  },
  {
    "molecule": "O=C1C2CCCCC2C(=O)N1n1c(Cc2ccc(Cl)cc2)n[nH]c1=O (stereo not given)",
    "target": "EKVX NSCLC",
    "relation-symbol": ">",
    "TGI [µM]": 100
  },
  {
    "molecule": "Cc1ccc(C2CC(=O)CC(c3ccc(C)cc3)C23C(=O)NC(=O)NC3=O)cc1 (stereo not given)",
    "target": "EKVX NSCLC",
    "relation-symbol": ">",
    "TGI [µM]": 100
  },
  {
    "molecule": "CCC(C)[C@@H](NCc1ccccc1)[C@H](OCc1ccccc1)[C@@H]1COC(C)(C)O1 (stereo not given in full)",
    "target": "EKVX NSCLC",
    "relation-symbol": "=",
    "TGI [µM]": 42.7
  },
  {
    "molecule": "Cn1cnc([N+](=O)[O-])c1Sc1nc2cc(Cl)c(F)cc2[nH]1",
    "target": "EKVX NSCLC",
    "relation-symbol": "=",
    "TGI [µM]": 16.5
  }
]

====

Catalogue of TGI readings, one per entry.
- System: A549 NSCLC
- assay-info: NCI tumour cell line growth inhibition, 48 h

[
  {
    "compound": "COc1cc2c(cc1OC)C13CCN4C=C5CCOC6CC(=O)N2C1C6C5CC43 (centres undefined)",
    "TGI": "> 100 µM"
  },
  {
    "compound": "O=[As](O)(O)c1ccc(NCc2ccccc2)cc1",
    "TGI": "> 100 µM"
  },
  {
    "compound": "COc1ccc(/C(=N/NC(N)=O)C2(O)C(=O)Nc3ccc([N+](=O)[O-])cc32)cc1 (centres undefined)",
    "TGI": "> 100 µM"
  },
  {
    "compound": "CC(C)(C)OC(=O)NCCNC1=CC(=O)c2nc3ccccc3c3ccnc1c23",
    "TGI": "> 100 µM"
  },
  {
    "compound": "CNC(=O)c1ccccc1-[s+]1c2ccccc2c(=O)n1C (centres undefined)",
    "TGI": "> 100 µM"
  },
  {
    "compound": "O=S(=O)(Oc1ccc2oc3ccccc3c2c1-c1c(OS(=O)(=O)C(F)(F)F)ccc2oc3ccccc3c12)C(F)(F)F",
    "TGI": "> 100 µM"
  },
  {
    "compound": "C=C(C)[C@@]1(O)O[C@H]2C[C@@]3(C)OC(=CC3=O)/C(C)=C\\[C@@H]3OC(=O)[C@@]1(C)[C@H]32",
    "TGI": "> 93.3 µM"
  },
  {
    "compound": "CCC(C)CN1C(=O)NC(C)(Cc2ccccc2)C1=O (centres undefined)",
    "TGI": "> 100 µM"
  },
  {
    "compound": "O=C(NCCCCCCCCNC(=O)c1cnc2ccccc2n1)c1cnc2ccccc2n1",
    "TGI": "> 100 µM"
  },
  {
    "compound": "CCCCCCCCCCCOC(=S)NC(C)C",
    "TGI": "51.1 µM"
  },
  {
    "compound": "CN(C)c1ccc2c(c1)C(=O)N(OS(=O)(=O)c1ccc([N+](=O)[O-])cc1)C2=O",
    "TGI": "> 100 µM"
  },
  {
    "compound": "FC(F)(F)C1(Cl)C(c2ccccc2)=C1c1ccccc1",
    "TGI": "28.9 µM"
  },
  {
    "compound": "C=C(C)C(=O)CC[C@@H](C)[C@H]1[C@@H](OC2OC(CO)C(O)C(O)C2O)C[C@@]2(C)[C@@H]3C[C@H](O)C4C(C)(C)[C@@H](OC5OC(CO)C(O)C(O)C5O)CC[C@@]45C[C@@]35CC[C@]12C (some centres undefined)",
    "TGI": "> 100 µM"
  },
  {
    "compound": "O=C(CP(c1ccccc1)c1ccccc1)c1cccc(C(=O)CP(c2ccccc2)c2ccccc2)c1",
    "TGI": "> 100 µM"
  },
  {
    "compound": "CC1=C(C(=O)NCc2ccccc2)C(c2ccc(C3C(C(=O)NCc4ccccc4)=C(C)NC(C)=C3C(=O)NCc3ccccc3)cc2)C(C(=O)NCc2ccccc2)=C(C)N1",
    "TGI": "61.3 µM"
  },
  {
    "compound": "CC1=C([Se]CC(OC(=O)[C@@H](CSSC(C)(C)C)NC(=O)OC(C)(C)C)C(=O)NC(C)(C)C)C(=O)c2ccccc2C1=O (some centres undefined)",
    "TGI": "2.66 µM"
  },
  {
    "compound": "COc1cc(CCc2cccnc2)cc(OC)c1OC",
    "TGI": "> 100 µM"
  },
  {
    "compound": "O=[N+]([O-])c1ccc(Nc2ccccc2-c2ccccc2)c2nonc12",
    "TGI": "> 86.8 µM"
  },
  {
    "compound": "Cc1c2cnccc2c(C)c2c1c1cc(C3OCCCO3)ccc1n2C",
    "TGI": "2.5 µM"
  }
]
